# TARGET: UniProt:P30542
# Sequence (P30542 whole entry): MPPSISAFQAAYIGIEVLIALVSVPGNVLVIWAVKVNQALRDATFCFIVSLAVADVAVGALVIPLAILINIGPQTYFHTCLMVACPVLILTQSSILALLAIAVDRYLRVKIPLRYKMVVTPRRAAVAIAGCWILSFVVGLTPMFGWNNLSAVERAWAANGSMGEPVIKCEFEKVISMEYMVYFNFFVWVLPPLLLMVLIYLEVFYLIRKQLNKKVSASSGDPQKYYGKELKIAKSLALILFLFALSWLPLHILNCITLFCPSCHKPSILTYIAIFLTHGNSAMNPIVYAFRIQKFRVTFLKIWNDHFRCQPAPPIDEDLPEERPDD
# TEST DETAILS: Inhibitory activity against membranes from yeast cells transformed with human A1 receptor (hA1)
# Assay type: cell-based
PARAMETER: IC50 (µM)

[a] Cc1[nH]c2nc(-c3ccccc3)nc(NCCN3CCNC3=O)c2c1C
[b] Cc1[nH]c2nc(-c3ccccc3)nc(N[C@@H]3Cc4ccccc4[C@H]3O)c2c1C
[c] Cc1[nH]c2nc(-c3ccccc3)nc(NCc3ccncc3)c2c1C
Problem: Put the above entries in order of falling IC50. // list labels; follow requested order
Result: b, a, c
(b: 1.7 µM, a: 0.422 µM, c: 0.222 µM)

[P] Cc1[nH]c2nc(-c3ccccc3)nc(NCCCN3CCCC3=O)c2c1C
[Q] Cc1[nH]c2nc(-c3ccccc3)nc(N[C@@H]3CCCCNC3=O)c2c1C
Problem: Which one would you say has the larger IC50 value: P , or Q ? Refer to your chosen entry by its label in the reply.
Result: P
(P: 5.65 µM, Q: 1.26 µM)

Source: ChEMBL document CHEMBL1131846
